# assayInfo: Caspase-3/7 induction in HepG2 cells by small molecules, qHTS cell viability counter screen (AID 1346981); note: nearly all actives have a fitted effect of over 30% in size; note: potency is the fitted concentration of half-maximal effect
# setupConditions: CellTiter-Fluor fluorescence, 17 h; series mostly up to 92.4 µM
Results filed as inconclusive are left out. The source made the active and inactive calls. Calls come from the whole dose curve; as a rule, active = well fitted cell-killing curve with a large enough effect in the repeat runs; inconclusive = weak or mixed curves, or effect the other way; inactive = flat fitted curve, though single readings scatter.
attributeMeasured: Potency

# compoundSmiles, measValue
data = [
    ("CC(=O)S[C@H](C(=O)N[C@H]1Cc2ccccc2[C@H]2CCC[C@@H](C(=O)O)N2C1=O)C(C)C", "inactive"),
    ("CC1(C)CC(=O)CC(C)(C)N1", "inactive"),
    ("Cc1ccccc1CCO", "inactive"),
    ("COc1ccc(C(=O)c2ccc(C)cc2)c(O)c1", "inactive"),
    ("O=C1c2ccccc2C(=O)C1c1ccc2ccccc2n1", "6.05 µM (active)"),
    ("CCCCCCCCCCCCCCCCC(=O)O", "inactive"),
    ("CCCCCO", "inactive"),
    ("Cc1c(N=C=O)cccc1N=C=O", "inactive"),
    ("Cc1ccc2c(Cl)cc(Cl)c(O)c2n1", "inactive"),
    ("Cc1cc(C)n(CO)n1", "inactive"),
]

###

# assayInfo: qHTS assay for identifying genotoxic compounds that show differential cytotoxicity against isogenic chicken DT40 cell lines with known DNA damage response pathways - Rev3 mutant cell line (AID 743014); note: nearly all actives have a fitted effect of over 55% in size
# setupConditions: chicken DT40 Rev3-/- viability, CellTiter-Glo, 40 h; series mostly up to 68.4 µM
Inconclusive results are not listed. Activity calls are given as the source filed them. The call rests on the fitted dose curve; in most records, active means well fitted cell-killing curve with a large enough effect in the repeat runs; inconclusive means weak or mixed curves, or effect the other way; inactive means no such curve, though single readings can be large or run the other way.
Possible outcomes: active, inactive

# compoundSmiles, answerLabel
rows = [
    ("Nc1cccc2c(=O)[nH][nH]c(=O)c12", "inactive"),
    ("COc1cc(CNC(=O)CCCC/C=C/C(C)C)ccc1O", "inactive"),
    ("C[Si](C)(C)O[Si](C)(C)O[Si](C)(C)C", "inactive"),
    ("O=C1CCCN1CCO", "active"),
]

###

# assayInfo: qHTS assay to identify small molecule phospholipidosis (PLD) inducers (AID 1259344)
# setupConditions: HepG2 phospholipidosis, LipidTOX Red imaging, 24 h; series mostly up to 38.3 µM
# Experimental: National Center for Advancing Translational Sciences [NCATS] Drug-induced Phospholipidosis (PLD) caused by cationic amphiphilic drugs is characterized by the appearance of unicentric or multicentric-lamellar bodies when viewed under electron microscope. […] Drug induced phospholipid accumulation is stained with the LipidTox dyes in red color which then is determined using an automated high content screening system. […]
Records with an inconclusive call do not appear. Activity calls are given as the source filed them. Calls follow the shape of the dose curve; as a rule, active = well fitted activation curve with a large enough effect; inconclusive = small, poorly fitted or top-dose-only effect; inactive = flat fitted curve, though single readings scatter.
Labels: active, inactive

# compound, answerLabel
records = [
    ("O=C(OC1C[C@H]2CC[C@@H](C1)[N+]21CCCC1)C(O)(c1ccccc1)c1ccccc1 (stereo not given in full)", "inactive"),
    ("CC(C)C[C@H](NC(=O)[C@H](Cc1ccccc1)NC(=O)c1cnccn1)B(O)O", "inactive"),
    ("Clc1ccccc1-c1nc(-c2ccncc2)no1", "inactive"),
    ("CC(=O)CC/C=C(\\C)CC/C=C(\\C)CC/C=C(\\C)CCC=C(C)C", "inactive"),
    ("C[C@]12CCC(=O)C=C1[C@@H]1C[C@@H]1[C@H]1[C@@H]3[C@@H]4C[C@@H]4[C@@]4(CCC(=O)O4)[C@@]3(C)CC[C@@H]12", "active"),
]

###

# assayInfo: qHTS assay to identify small molecule antagonists of the thyroid receptor (TR) signaling pathway - cell viability counter screen (AID 743064); note: nearly all actives have a fitted effect of over 50% in size
# setupConditions: GH3.TRE-Luc viability, CellTiter-Fluor, 24 h; series mostly up to 70.3 µM
Inconclusive results are not listed. The source made the active and inactive calls. The call rests on the fitted dose curve; in most records, active means well fitted cell-killing curve with a large enough effect in the repeat runs; inconclusive means weak or mixed curves, or effect the other way; inactive means no such curve, though single readings can be large or run the other way.
Classes used: yes (active), no (inactive)

# compound, answerLabel
data = [
    ("C=C[Si]1(C)O[Si](C)(C=C)O[Si](C)(C=C)O[Si](C)(C=C)O1 (centres undefined)", "no"),
    ("CCCCC(CC)COCCC#N (centres undefined)", "no"),
    ("CCCCCCCCOCCCN", "yes"),
    ("CCOC(C)OCC", "no"),
]

###

# assayInfo: qHTS RealTime-Glo MT Cell Viability Assay in HEK293 cells - 32 hour (AID 1224868); note: nearly all actives have a fitted effect of over 50% in size
# setupConditions: RealTime-Glo luminescence; series mostly up to 76.8 µM
Inconclusive results are not listed. Activity calls are given as the source filed them. Calls follow the shape of the dose curve; as a rule, active = well fitted cell-killing curve with a large enough effect in the repeat runs; inconclusive = weak or mixed curves, or effect the other way; inactive = flat fitted curve, though single readings scatter.
Labels: active, inactive

# compound, answerLabel
data = [
    ("CCC1=C(C)CN(C(=O)NCCc2ccc(S(=O)(=O)NC(=O)NC3CCC(C)CC3)cc2)C1=O (centres undefined)", "inactive"),
    ("CCOc1ccccc1O", "active"),
    ("CC(CC(C#N)(c1ccccc1)C(C)C)N(C)C (centres undefined)", "inactive"),
    ("Cc1c(N=C=O)cccc1N=C=O", "inactive"),
    ("O=C(O)c1ccc2cc(O)ccc2c1", "inactive"),
    ("O=C1c2ccccc2C(=O)c2c1ccc(O)c2O", "inactive"),
    ("CC1(C)CC(O)CC(C)(C)N1[O]", "inactive"),
    ("CC/C=C/CCO", "inactive"),
    ("CC(C)CCCCCCCOC(=O)c1ccc(C(=O)OCCCCCCCC(C)C)c(C(=O)OCCCCCCCC(C)C)c1", "inactive"),
    ("CCCCCCCCCCCCSC#N", "inactive"),
    ("C=Cc1ccc(C=C)cc1", "inactive"),
    ("CC(C)C[C@H](NC(=O)[C@H](Cc1ccccc1)NC(=O)c1cnccn1)B(O)O", "active"),
    ("CC1(C)CC(=O)CC(C)(C)N1", "inactive"),
    ("CCCCCO", "inactive"),
    ("CC(C)(O)C(=O)O", "inactive"),
    ("O=C1OC(=O)C2CC=CCC12 (centres undefined)", "inactive"),
    ("Cc1ccc(S(=O)(=O)NC(=O)NC2CCCC2)cc1", "inactive"),
    ("CCOCCn1c(N2CCCN(C)CC2)nc2ccccc21", "inactive"),
    ("Cc1ccccc1CCO", "inactive"),
    ("CCCCCCCCCCCCCCCCC(=O)O", "inactive"),
    ("O=c1c2ccccc2oc2ccccc12", "inactive"),
    ("CC(=O)c1ccc(Cl)c(Cl)c1Cl", "inactive"),
    ("O=C(O)c1cc(C(=O)O)c(C(=O)O)cc1C(=O)O", "inactive"),
    ("CO[C@@H]1COCC[C@@H]1N[C@@H]1CC[C@@](C(=O)N2CCc3ncc(C(F)(F)F)cc3C2)(C(C)C)C1", "active"),
    ("Nc1cccc2c(=O)[nH][nH]c(=O)c12", "inactive"),
    ("C=CC(O)CCCCC (centres undefined)", "inactive"),
    ("CCOc1ccc(NC(C)=O)cc1N", "inactive"),
    ("CC(CCl)OC(C)CCl (centres undefined)", "inactive"),
    ("Cc1c(Cl)cccc1[N+](=O)[O-]", "inactive"),
    ("CC(C)(Cc1c[nH]c2ccccc12)NCC(O)COc1ccccc1C#N (centres undefined)", "active"),
    ("O=C(O)c1cc(C(=O)O)cc([N+](=O)[O-])c1", "inactive"),
    ("O=C(O)c1cccc(C(=O)O)c1C(=O)O", "inactive"),
    ("SCCOCCOCCS", "inactive"),
    ("CC(COc1ccccc1)NC(C)C(O)c1ccc(O)cc1 (centres undefined)", "inactive"),
    ("CCCC1CCOC(C)S1 (centres undefined)", "inactive"),
    ("CCC(C(=O)O)c1ccc(N2Cc3ccccc3C2=O)cc1 (centres undefined)", "inactive"),
    ("CO[C@@H]1[C@@H](O[C@@H]2O[C@H](C)[C@@H](O[C@H]3C[C@@](C)(O)[C@@H](O)[C@H](C)O3)[C@H](N(C)C)[C@H]2O)[C@@H](CC=O)C[C@@H](C)[C@@H](O[C@@H]2CC[C@H](N(C)C)[C@@H](C)O2)/C=C/C=C/C[C@@H](C)OC(=O)C[C@H]1OC(C)=O", "inactive"),
    ("Nc1ccc(C(=O)Oc2ccccc2)c(O)c1", "inactive"),
    ("CC/C=C\\CCO", "inactive"),
    ("CCCCCCCCCC(C)C=O (centres undefined)", "inactive"),
    ("O=[N+]([O-])c1ccccc1CCO", "inactive"),
    ("CC(=O)c1cccnc1", "inactive"),
    ("O=C(O)CNc1ccccc1", "inactive"),
    ("Nc1ccc(F)cc1F", "inactive"),
]

###

# assayInfo: qHTS assay to test for compound auto fluorescence at 535 nm (green) in HEK293 cell free culture (AID 720682)
# setupConditions: cell-free medium, green autofluorescence 485/535 nm, active compounds read high; series mostly up to 91.3 µM
Activity calls are given as the source filed them. The call rests on the fitted dose curve; in most records, active means well fitted curve in the direction sought with a large enough effect in the repeat runs; inconclusive means weak or mixed curves; inactive means flat fitted curve, though single readings scatter.
attributeMeasured: activity change

# compound, measValue
rows = [
    ("CCc1ccc(C(=O)C(C)CN2CCCCC2)cc1 (stereo not given)", "inactive"),
    ("O=Cc1ccc([N+](=O)[O-])cc1", "inactive"),
    ("O=C(O)c1ccc(O)c(O)c1", "inactive"),
    ("O=C(Nc1ccc2c(c1)Cc1ccccc1-2)C(F)(F)F", "inactive"),
    ("CC(C)C/C=C(\\C=O)c1ccccc1", "inactive"),
]
